assayed_system: DCN1 (Homo sapiens (Human))
Sequence (Q96GG9 58-259): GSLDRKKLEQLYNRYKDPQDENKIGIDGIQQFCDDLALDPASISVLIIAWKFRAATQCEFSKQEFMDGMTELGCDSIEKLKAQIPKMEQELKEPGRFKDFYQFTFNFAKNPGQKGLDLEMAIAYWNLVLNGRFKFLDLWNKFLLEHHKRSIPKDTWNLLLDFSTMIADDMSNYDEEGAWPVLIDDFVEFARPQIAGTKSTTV
assay_explanation: Competitive FP binding assay
measurement_parameters: bounds given in μM; read-out: Binding affinity to DCN1 (IC50)
Description: Competitive FP Binding Assay The Fluorescence Polarization (FP) competitive binding assays were performed to accurately determine the binding affinities of our DCN1 inhibitors. […] Serial dilutions of proteins were mixed with 46 to a final volume of 200 μl in the assay buffer (100 mM phosphate buffer, pH=6.5, with 0.02% Tween-20 and 2% DMSO). Final probe concentration was 5 nM for both assays. Plates were incubated at room temperature for 30 minutes with gentle shaking to assure equilibrium. […]
parameter: IC50

IN: IC50 lookup needed for "NCCNC(=O)[C@H](Cc1nc2ccc(Cl)cc2s1)NC(=O)CCOCc1ccccc1" , thanks.
OUT: > 10 µM

IN: // same read-out, input: "CCC(=O)N[C@H](CNC(=O)C1(N)CCC(F)(F)CC1)Cc1nc2ccc(C(C)C)cc2s1"
OUT: > 5 µM

IN: // same read-out, input: "CCC(=O)N[C@@H](Cc1ccccn1)C(=O)N[C@H](C(=O)N[C@@H](CCCCN)C(=O)NC(c1ccccc1)c1ccccc1)[C@@H](C)CC"
OUT: > 10 µM

IN: // same read-out, input: "CC(C)C(=O)N[C@@H](Cc1nc2ccc(C(C)C)cc2s1)C(=O)NCCN"
OUT: > 10 µM

IN: // same read-out, input: "COCCC(=O)N[C@@H](Cc1nc2ccc(Cl)cc2s1)C(=O)NCCN"
OUT: > 10 µM

IN: // same read-out, input: "CCC(=O)N[C@@H](Cc1nc2ccc(Cl)cc2s1)C(=O)N[C@@H](C[C@H]1CC[C@H](CNC(=O)COCCOCCOCCNC(=O)CCCC[C@@H]2SC[C@@H]3NC(=O)N[C@@H]32)CC1)C(=O)N[C@@H](CCCCN(C)C)C(=O)N[C@@H]1CCOc2ccccc21"
OUT: > 10 µM

====

assayed_system: DCN1 (Homo sapiens (Human))
assay_explanation: Competitive FP binding assay
measurement_parameters: read-out: Binding affinity to DCN1 (IC50 (nM))
parameter: IC50

IN: IC50 lookup needed for CCC(=O)N[C@@H](Cc1nc2ccc(CC)cc2s1)C(=O)N[C@H](C(=O)N[C@@H](CCCCN)C(=O)N[C@@H]1CCOc2ccccc21)C1CCCC1 [Example 176] , thanks.
OUT: 79 nM

IN: // same read-out, input: CCC(=O)N[C@@H](Cc1ccc2ccccc2c1)C(=O)N[C@@H](CC1CCCCC1)C(=O)N[C@@H](CCCCN)C(=O)NC(c1ccccc1)c1ccccc1 [Example 21]
OUT: 290 nM

IN: // same read-out, input: CCC(=O)N[C@@H](Cc1nc2ccc(C)cc2s1)C(=O)N[C@H](C(=O)N[C@@H](CCCCN)C(=O)NC(c1ccccc1)c1ccccc1)C1CCCC1 [Example 173]
OUT: 58.1 nM

IN: // same read-out, input: CCC(=O)N[C@@H](Cc1nc2ccc(C)cc2s1)C(=O)N[C@@H](Cc1ccncc1)C(=O)N[C@@H](CCCCN)C(=O)N[C@@H]1CCOc2ccccc21 [Example 184]
OUT: 149 nM

IN: // same read-out, input: CCC(=O)N[C@@H](Cc1nc2ccc(C(C)C)cc2s1)C(=O)N[C@H](CNC(=O)C1CCNCC1)C1CCCCC1 [Example 62]
OUT: 25.9 nM

IN: // same read-out, input: CCC(=O)N[C@@H](Cc1nc2ccc(C(C)C)cc2s1)C(=O)N[C@H](C(=O)NCCN1CCOCC1)C1CCN(C(=O)OC(C)(C)C)CC1 [Example 264]
OUT: 1500 nM

IN: // same read-out, input: CC[C@H](C)[C@@H](CN)NC(=O)[C@H](Cc1nc2ccc(C(C)C)cc2s1)NC(C)=O [Example 46]
OUT: 281 nM

IN: // same read-out, input: CCC(=O)N[C@@H](Cc1nc2ccc(C(C)C)cc2s1)C(=O)N[C@H](Cn1cc(CN)nn1)C1CCCCC1 [Example 82]
OUT: 243 nM

IN: // same read-out, input: CCC(=O)N[C@@H](Cc1nc2ccc(CC)cc2s1)C(=O)N[C@H](CN)[C@@H](C)CC [Example 215]
OUT: 230 nM

IN: // same read-out, input: CCC(=O)N[C@@H](Cc1nc2ccc(CC)cc2s1)C(=O)N[C@H](C(=O)N[C@@H](CC1CCN(C)CC1)C(=O)N[C@@H]1CCOc2ccccc21)C1CCOCC1 [Example 193]
OUT: 171 nM

IN: // same read-out, input: CCC(=O)N[C@@H](Cc1ccc2ccccc2c1)C(=O)N[C@H](C(=O)N[C@@H](CCCCN)C(=O)N[C@@H]1CCOc2c(Cl)cccc21)C1CCCC1 [Example 166]
OUT: 193 nM

IN: // same read-out, input: CCC(=O)N[C@@H](Cc1nc(C)c(-c2ccc(F)cc2)s1)C(=O)N[C@H](CN)Cc1ccccc1 [Example 100]
OUT: 2220 nM

IN: // same read-out, input: CCC(=O)N[C@@H](Cc1ccc2ccccc2c1)C(=O)N[C@H](C(=O)N[C@@H](CCCCN)C(=O)N[C@@H]1CCCc2ccccc21)[C@@H](C)CC [Example 15]
OUT: 461 nM

====

Consider the following compounds; for each one, report its log10 IC50.
assayed_system: DCN1 (Homo sapiens (Human))
assay_explanation: Competitive FP binding assay
measurement_parameters: read-out: Binding affinity to DCN1 (IC50 (nM))
Square brackets hold non-standard residues; d marks the D form. Peptide text beside a SMILES is read from it. * marks the point of attachment. Ala(6-iPr-benzothiazol-2-yl) = CC(C)c1ccc2nc(C[C@H](N)C(=O)O)sc2c1; Gly(4-THP) = N[C@H](C(=O)O)C1CCOCC1; Propionyl = CCC(=O)*
In plain terms, each number is the log10 of measured IC50 in nM.

IN: log10 IC50 lookup needed for "CCC(=O)N[C@@H](Cc1cc2ccccc2cn1)C(=O)N[C@H](C(=O)N[C@@H](CCCCN)C(=O)NC(c1ccccc1)c1ccccc1)[C@@H](C)CC" , thanks.
OUT: 3.42

IN: // same read-out, input: "CCC(=O)N[C@@H](Cc1ccc2ccccc2n1)C(=O)N[C@H](C(=O)N[C@@H](CCCCN)C(=O)NC(c1ccccc1)c1ccccc1)[C@@H](C)CC"
OUT: 3.37

IN: // same read-out, input: CCC(=O)N[C@@H](Cc1nc2ccc(C(C)C)cc2s1)C(=O)N[C@H](C(=O)N[C@@H](CCCCN)C(=O)N[C@@H](CC(C)C)C(N)=O)[C@@H](C)CC [Example 273] (Propionyl-[Ala(6-iPr-benzothiazol-2-yl)]IKL-NH2)
OUT: 1.71

IN: // same read-out, input: "CCC(=O)N[C@@H](Cc1cn2cc(C(C)C)ccc2n1)C(=O)N[C@H](C(=O)N[C@@H](CCCCN)C(=O)N[C@@H]1CCOc2ccccc21)C1CCOCC1"
OUT: 1.91

IN: // same read-out, input: "CCC(=O)N[C@@H](Cc1nc2ccccc2s1)C(=O)N[C@H](C(=O)N[C@@H](CCCCN)C(=O)NC(c1ccccc1)c1ccccc1)[C@@H](C)CC"
OUT: 2.58

IN: // same read-out, input: CCC(=O)N[C@@H](Cc1nc2ccc(C(C)C)cc2s1)C(=O)N[C@H](C(=O)N[C@@H](CCCCN)C(=O)N[C@@H](CC(C)C)C(N)=O)C1CCOCC1 [Example 2287] (Propionyl-[Ala(6-iPr-benzothiazol-2-yl)][Gly(4-THP)]KL-NH2)
OUT: 2.45

IN: // same read-out, input: "CCC(=O)N[C@@H](Cc1nc2ccc(C(C)C)cc2s1)C(=O)N[C@H](CNC(=O)c1ccncc1)C1CCCCC1"
OUT: 2.11

IN: // same read-out, input: "CCC(=O)N[C@@H](Cc1nc2ccc(Cl)cc2s1)C(=O)N[C@H](C(=O)N[C@@H](CCCCN)C(=O)NCc1ccccn1)C1CCOCC1"
OUT: 2.96

IN: // same read-out, input: "CCC(=O)N[C@@H](Cc1nc2ccc(Cl)cc2s1)C(=O)N[C@H](C(=O)N[C@@H](CC1CCNCC1)C(=O)N[C@@H]1CCOc2ccccc21)C1CCOCC1"
OUT: 2.35

IN: // same read-out, input: "CCC(=O)N[C@H](CNC(=O)Nc1ccccc1)Cc1nc2ccc(Cl)cc2s1"
OUT: 3.59

IN: // same read-out, input: "CCC(=O)N[C@@H](Cc1nc2ccc(C)cc2s1)C(=O)N[C@H](C(=O)N[C@H](C(=O)N[C@@H]1CCOc2ccccc21)C1CCNCC1)C1CCOCC1"
OUT: 2.61

IN: // same read-out, input: "CC(C)C(=O)N[C@@H](Cc1nc2ccc(C(C)C)cc2s1)C(=O)N[C@H](CN)C1CCCCC1"
OUT: 2.14

IN: // same read-out, input: "CCC(=O)N[C@@H](Cc1nc2ccc(C)cc2s1)C(=O)N[C@H](C(=O)N[C@@H](CCCCN)C(=O)N[C@@H]1CCOc2ccccc21)C(C)(C)O"
OUT: 2.57

IN: // same read-out, input: "CCC(=O)N[C@H](CNC(=O)C1(CN)CCCCC1)Cc1nc2ccc(C(C)C)cc2s1"
OUT: 2.94

IN: // same read-out, input: "CCC(=O)N[C@@H](Cc1nc2ccc(C(C)C)cc2s1)C(=O)N[C@H](CNC(=O)c1ncc[nH]1)C1CCCCC1"
OUT: 3.08

IN: // same read-out, input: "CCC(=O)N[C@@H](Cc1ccc2ccccc2c1)C(=O)N[C@H](C(=O)N[C@@H](CCCCN)C(=O)NC(c1ccc(F)cc1)c1ccc(F)cc1)C1CCCC1"
OUT: 3.24

IN: // same read-out, input: "CCC(=O)N[C@@H](Cc1nc2ccc(Cl)cc2s1)C(=O)N[C@@H](C[C@H]1CC[C@H](CNC(=O)COCCOCCOCCNC(=O)CCCC[C@@H]2SC[C@@H]3NC(=O)N[C@@H]32)CC1)C(=O)N[C@@H](CCCCN(C)C)C(=O)N[C@@H]1CCOc2ccccc21"
OUT: 2.28

IN: // same read-out, input: "CCC(=O)N[C@@H](Cc1nc2ccc(CC)cc2s1)C(=O)N[C@H](C(=O)N[C@@H](CC1CCNCC1)C(=O)N[C@@H]1CCOc2ccccc21)C1CCOCC1"
OUT: 2.23

IN: // same read-out, input: CCC(=O)N[C@@H](Cc1nc2ccc(C(C)C)cc2s1)C(=O)N[C@H](C(=O)N[C@@H](CCCCN)C(=O)N[C@@H](CC(C)C)C(N)=O)C(C)C [Example 282] (Propionyl-[Ala(6-iPr-benzothiazol-2-yl)]VKL-NH2)
OUT: 1.86

IN: // same read-out, input: "CCC(=O)N[C@@H](Cc1nc2ccc(Cl)cc2s1)C(=O)N[C@H](C(=O)N[C@@H](CCCCN)C(=O)NCc1cccnc1)C1CCOCC1"
OUT: 3.08
